System: K4 kissing-loop RNA reporter;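 note: bound reporter read as fluorescence of individual clusters on recovered sequencing chips by microscopy, with normalized cluster intensities fitted with a binding model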
Test: apparent KD of K4 kissing-loop reporter; higher = weaker reporter binding
Conditions: Eterna round: R107; input ligand: FMN 200 uM
Could you label it y if measured apparent KD of K4 kissing-loop reporter is 200 nM or higher, and n otherwise?

| RECORD SEQUENCE | GROUP |
| --- | --- |
| ACGAUUUACAGAAGGAGCGUGUAUUUAACUACAAUUAUCAUAGCGAGUGAUGUUCGUUAUACACAGGUAGGUCGCUGUAUAUCGA [JR_ExcArginiB_Sub012] | y |
| UAAUCUAACGAGAGUGAUGUUCUCGUCACAGAGGAUAUACGAUUUAGUAGAAGGCUGUUGGAUUCGCUUAAUGAUGACUAGAUUA [FMN A SS t1] | y |
| CCAUCGCUAUUCGAUACCAGUCAUUAAAUCUUUGGUUUAAUAAAGGAGUGAUGUUCCCAAGACCCUUGGCAGCGAAUAGUGAUGG [Theophylline B K4 9] | y |
| AAGUGAUGUUGUAGUGAUGUUGUGAUGUUGCAGGAUAUAUAGUGAUGUAGAAGGGUAUGUACAGUUUUUUUUUUUGAGUGAUGAU [vvcvmullin] | n |
| GUUACGCAUGGAAGGAGCGCGAAUUUAAUUAGUGAGUGAUGUUCACAUAAAAUGUAUAAUACGCAGGUAGGUCGCCAUGUGUAAC [whbob_Ex_Arginine_B_2th163] | n |
| GGCAGUGAUGUUGCCAGUGGCAGAUGUGAAGGAGCGCGGUGAGACGCAGGUAGGUCGCACAUUGAAAUUGCUGUCACUAAAAUGC [#02 K4 Arginine A Exclusion] | y |
